pIC50: −log10 of the molar value.
Heads up, these compounds all have pIC50 values measured for Carboxypeptidase B2 (Homo sapiens, UniProt Q96IY4).

compound	system tested	pIC50
CC1(C)[C@@H]2CC[C@@]1(C)[C@@H](NC(=O)[C@H](CC1CCCCC1)NS(=O)(=O)N[C@@H](CCCCO)C(=O)O)C2	Carboxypeptidase B2 (Homo sapiens, UniProt Q96IY4)	< 4.52
CC(C)[C@H](NS(=O)(=O)N[C@@H](CCCCN)C(=O)O)C(=O)NC12CC3CC(CC(C3)C1)C2	Carboxypeptidase B2 (Homo sapiens, UniProt Q96IY4)	< 4.52
CC1(C)[C@@H]2CC[C@@]1(C)[C@@H](NC(=O)[C@@H](NS(=O)(=O)N[C@@H](CCCCN)C(=O)O)C1CCCCC1)C2	Carboxypeptidase B2 (Homo sapiens, UniProt Q96IY4)	4.33
NCCCC[C@H](NS(=O)(=O)N[C@H](C(=O)NC12CC3CC(CC(C3)C1)C2)c1ccccc1)C(=O)O	Carboxypeptidase B2 (Homo sapiens, UniProt Q96IY4)	< 4.52
C[C@H](NS(=O)(=O)N[C@@H](CCCCN)C(=O)O)C(=O)NC12CC3CC(CC(C3)C1)C2	Carboxypeptidase B2 (Homo sapiens, UniProt Q96IY4)	< 4.52
CC1(C)C2CCC1(C)C(OC(=O)[C@H](CC1CCCCC1)NS(=O)(=O)N[C@@H](CCCCN)C(=O)O)C2 (stereo partly specified)	Carboxypeptidase B2 (Homo sapiens, UniProt Q96IY4)	5.19

###

protocol text: Aqueous solubility of the compound at pH 7.4 at 25 degC
Type: physicochemical

smiles	solubility (µg/mL)
CC1(C)[C@@H]2CC[C@@]1(C)[C@@H](NC(=O)[C@H](CC1CCCCC1)NS(=O)(=O)N[C@@H](CCCCN)C(=O)O)C2.Cl	457

###

protocol text: Drug metabolism in Swiss CD1 mouse liver microsomes assessed as CYP450/FMO-mediated oxidative metabolism at 5 uM after 20 mins in presence of NADPH
Assay type: ADME
study conditions: read-out: Drug metabolism

smiles	metabolised at 20 min, 5 µM / %
CC1(C)[C@@H]2CC[C@@]1(C)[C@@H](NC(=O)[C@H](CC1CCCCC1)NS(=O)(=O)N[C@@H](CCCCN)C(=O)O)C2.Cl	0

###

protocol text: Lipophilicity, log D of the compound at pH 7.4 at 25 degC
Assay type: physicochemical
study conditions: buffer
readout type: logD

smiles	readout type	recorded result
CC1(C)[C@@H]2CC[C@@]1(C)[C@@H](NC(=O)[C@H](CC1CCCCC1)NS(=O)(=O)N[C@@H](CCCCN)C(=O)O)C2.Cl	logD	2.02

###

protocol text: Drug metabolism in human liver microsomes assessed as CYP450/FMO-mediated oxidative metabolism at 5 uM after 20 mins in presence of NADPH
Type: ADME
study conditions: read-out: Drug metabolism

smiles	value unit	metabolised at 20 min, 5 µM
CC1(C)[C@@H]2CC[C@@]1(C)[C@@H](NC(=O)[C@H](CC1CCCCC1)NS(=O)(=O)N[C@@H](CCCCN)C(=O)O)C2.Cl	%	21

###

protocol text: Volume distribution at steady state in Sprague-Dawley rat at 1 mg/kg, iv administered as bolus dose measured up to 24 hrs
Format: ADME, organism-based
study conditions: in vivo, read-out: Vdss
readout type: Vd (L/kg)

smiles	readout type	recorded result
CC1(C)[C@@H]2CC[C@@]1(C)[C@@H](NC(=O)[C@H](CC1CCCCC1)NS(=O)(=O)N[C@@H](CCCCN)C(=O)O)C2	Vd	0.38

###

protocol text: Drug metabolism in Sprague-Dawley rat liver microsomes assessed as CYP450/FMO-mediated oxidative metabolism at 5 uM after 20 mins in presence of NADPH
Format: ADME
study conditions: read-out: Drug metabolism

smiles	value unit	metabolised at 20 min, 5 µM
CC1(C)[C@@H]2CC[C@@]1(C)[C@@H](NC(=O)[C@H](CC1CCCCC1)NS(=O)(=O)N[C@@H](CCCCN)C(=O)O)C2.Cl	%	8

###

protocol text: Clearance in Sprague-Dawley rat at 1 mg/kg, iv administered as bolus dose measured up to 24 hrs
Type: ADME, organism-based
study conditions: in vivo

smiles	value unit	clearance
CC1(C)[C@@H]2CC[C@@]1(C)[C@@H](NC(=O)[C@H](CC1CCCCC1)NS(=O)(=O)N[C@@H](CCCCN)C(=O)O)C2	L/h/kg	0.7

###

protocol text: Initial plasma concentration in Sprague-Dawley rat at 1 mg/kg, iv administered as bolus dose measured up to 4 hrs
Type: ADME, organism-based

smiles	C0 at 4 h / ng/mL
CC1(C)[C@@H]2CC[C@@]1(C)[C@@H](NC(=O)[C@H](CC1CCCCC1)NS(=O)(=O)N[C@@H](CCCCN)C(=O)O)C2	3800

###

protocol text: Permeability across apical to basolateral side in human Caco2/TC7 cells at 20 uM after 120 mins by UPLC/ESI-MS-MS analysis
Type: ADME, cell-based
study conditions: Caco-2

smiles	value unit	Papp A→B at 2 h, 20 µM
CC1(C)[C@@H]2CC[C@@]1(C)[C@@H](NC(=O)[C@H](CC1CCCCC1)NS(=O)(=O)N[C@@H](CCCCN)C(=O)O)C2.Cl	×10⁻⁶ cm/s	0.06
